Molecular target: AP-2 complex subunit beta (Homo sapiens)
Test: beta-arrestin/AP2 interaction blockers – biochemical, validation set, GST-AP2 beads, flow cytometry, pilot screen (AID 504541);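 further: AP2 carries R879A mutation and is captured from E. coli lysate; bead-bound FITC arrestin peptide fluorescence measuring arrestin peptide binding to AP2; 0% = DMSO wells and 100% = excess unlabeled arrestin peptide control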
Details: FITC arrestin peptide, at 10 µM, stronger effect = higher value, AP2 beta2 appendage fragment, R879A mutant
assay-metric: inhibition (%)
// units = %; emit number, no label

As a guide, the following entries are already answered.
[
  {
    "compound": "COc1ccc(NC(=S)N2CCN(CCN3C(=O)c4cccc5cccc(c45)C3=O)CC2)cc1",
    "numeric-readout": 24.4
  },
  {
    "compound": "COc1cc(CNc2ccc(C)c(C)c2)cc(OC)c1OC",
    "numeric-readout": 16.2
  },
  {
    "compound": "OCC1CCN(Cc2cn(Cc3ccccc3)nc2-c2cc3ccccc3o2)CC1",
    "numeric-readout": 5.6
  },
  {
    "compound": "CCCCCCCCNC(C)C(O)c1ccc(SC(C)C)cc1 (stereo unspecified)",
    "numeric-readout": 15.9
  },
  {
    "compound": "Cc1ccc2c(c1)C(C)(C)[C@]1(C)NC(=O)CCN21",
    "numeric-readout": -1
  }
]

Continue with the next compound.
response.value for Cc1ccc(S(=O)(=O)Oc2ccccc2/C=N/N=C(N)N)cc1 (field: inhibition) = 6.93

###

Assay: rapamycin-like changes in RPL19A-GFP expression – cell-based, S. cerevisiae, multiplex flow cytometry, primary screen (AID 1862);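 further: lower values mimic rapamycin by blocking the RPL19A rise seen in DMSO cells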
Conditions: S. cerevisiae RPL19A-GFP strain, flow cytometry fluorescence, 3 h; at 10 µM; stronger effect = lower value
Inconclusive results are not listed.
Documented percent of DMSO control GFP across a set of compounds
Value expressed in %; do not type the unit.

Known results for compounds:
[
  {
    "compound": "CC(C)CN(C)Cc1c(C(=O)N2CCc3ccccc3C2)nc2ccc(Cl)cn12",
    "percent of DMSO control GFP [%]": 105
  },
  {
    "compound": "O=C(O)C1CSC(c2ccco2)N1 (configuration not stated)",
    "percent of DMSO control GFP [%]": 102
  }
]

percent of DMSO control GFP reported for this compound CCOC(=O)N1CCN(Cc2nc(Cc3cccc(F)c3)no2)CC1 : 102

Recorded percent of DMSO control GFP (compound CCOC(=O)c1ccc(NC(=S)NCCc2ccccc2F)cc1 ): 100

For reference, reported percent of DMSO control GFP for COc1ccc2c(C=O)cn(C)c2c1 stands at 89.8

Consider COc1cc(CO)ccc1OCc1nnnn1-c1ccc(C)cc1 . Its measured percent of DMSO control GFP is 102

Quick note, percent of DMSO control GFP for CC(=O)N1CCn2c3c(c4cc(C)ccc42)CCCC31 (configuration not stated) landed at 99.7

Entry under test: CCCN1CCC(NC(=O)Nc2ccc(Br)cc2)CC1 . Its percent of DMSO control GFP was 104

Record N/C(=N\OC(=O)CCCOc1ccc(Cl)cc1Cl)c1ccncc1 , field percent of DMSO control GFP: 96.4

###

// reported double positive events for each item listed
Test: reduced mouse 2C T cell binding to pMHC/ICAM-1 vesicles – MLPCN validation set, flow cytometry, LFA-1/ICAM-1 modulator project, pilot screen (AID 2523)
Settings: 2C mouse CD8+ T cells, at 7 µM, stronger effect = lower value; measured here: CD8+/vesicle+ event percentage
Please reply with the bare figure in % and do not write the unit itself.

Some solved entries appear below for comparison.
[
  {
    "molecule": "COc1ccc(NC(=O)C2OC3OC(C)(C)OC3C3OC(C)(C)OC23)cc1 (stereo not given)",
    "result-unit": "%",
    "double positive events": 63.5
  },
  {
    "molecule": "CN(C)[C@@H]1C(=O)C(C(=O)NCN2CCCC2)=C(O)[C@@]2(O)C(=O)C3=C(O)c4c(O)cccc4[C@@](C)(O)C3CC12 (stereo not given in full)",
    "result-unit": "%",
    "double positive events": 59
  },
  {
    "molecule": "CCn1cc(CN2N=C(C)CC2c2ccccc2)c(C)n1 (stereo not given)",
    "result-unit": "%",
    "double positive events": 60.6
  },
  {
    "molecule": "O=C(O)CCCN1C(=O)NC2NC(=O)NC21 (stereo not given)",
    "result-unit": "%",
    "double positive events": 64.9
  },
  {
    "molecule": "CCN(CC)CC#CCOC(=O)C(O)(c1ccccc1)C1CCCCC1 (stereo not given)",
    "result-unit": "%",
    "double positive events": 62.3
  }
]

Next up:
The recorded double positive events for COc1cc(NC(=O)COc2ccccc2)c(OC)cc1NC(C)=O is 59.7
